Kindly state MIC for each of the entries shown.
Test system: Streptococcus pyogenes
Assay: Antibacterial activity against Streptococcus pyogenes ERSPy-1 expressing mef by the broth microdilution method
Type: functional
Please give a number only; it is taken to be in µg/mL.

Consider the molecule CC[C@H]1OC(=O)[C@H](C)[C@@H](O[C@H]2C[C@@](C)(OC)[C@@H](O[C@@H]3O[C@@H]4COC(c5ccccc5)O[C@H]4[C@H](O)[C@H]3O)[C@H](C)O2)[C@H](C)[C@@H](O[C@@H]2O[C@H](C)C[C@H](N(C)C)[C@H]2O)[C@](C)(OC)C[C@@H](C)C(=O)[C@H](C)[C@H]2N(CCCCn3cnc4ncccc43)C(=O)O[C@]12C (stereo partly drawn) . State its measured MIC.
2

Consider the molecule `CC[C@H]1OC(=O)[C@H](C)[C@@H](O[C@H]2C[C@@](C)(OC)[C@@H](O[C@@H]3O[C@H](CO)[C@@H](O)[C@H](O)[C@H]3O)[C@H](C)O2)[C@H](C)[C@@H](O[C@@H]2O[C@H](C)C[C@H](N(C)C)[C@H]2O)[C@](C)(OC)C[C@@H](C)C(=O)[C@H](C)[C@H]2N(CCCCn3cnc4cccnc43)C(=O)O[C@]12C` . State its measured MIC.
16

Consider the molecule `CC[C@H]1OC(=O)[C@H](C)[C@@H](O[C@H]2C[C@@](C)(OC)[C@@H](O[C@@H]3O[C@H](COC(=O)c4ccccc4)[C@@H](O)[C@H](O)[C@H]3OC(C)=O)[C@H](C)O2)[C@H](C)[C@@H](O[C@@H]2O[C@H](C)C[C@H](N(C)C)[C@H]2O)[C@](C)(OC)C[C@@H](C)C(=O)[C@H](C)[C@@H](O)[C@]1(C)O` . State its measured MIC.
8

====

Test system: Staphylococcus epidermidis
Assay: Antibacterial activity against methicillin-resistant Staphylococcus epidermidis MRSE-1 by the broth microdilution method
Format: functional
observable: MIC (µg/mL)
Please give a number only; it is taken to be in µg/mL.

Consider the compound `CC[C@H]1OC(=O)[C@H](C)[C@@H](O[C@H]2C[C@@](C)(OC)[C@@H](O[C@@H]3O[C@H](COC(=O)c4ccccc4)[C@@H](O)[C@H](O)[C@H]3OC(C)=O)[C@H](C)O2)[C@H](C)[C@@H](O[C@@H]2O[C@H](C)C[C@H](N(C)C)[C@H]2O)[C@](C)(OC)C[C@@H](C)C(=O)[C@H](C)[C@@H](O)[C@]1(C)O` . State its measured MIC.
16

====

Tested on: Streptococcus pyogenes
Assay: Antibacterial activity against Streptococcus pyogenes ERSPy-1 expressing mef by the broth microdilution method
Type: functional
observable: MIC (µg/mL)
Please give a number only; it is taken to be in µg/mL.

Consider the compound `CC[C@H]1OC(=O)[C@H](C)[C@@H](O[C@H]2C[C@@](C)(OC)[C@@H](O[C@@H]3O[C@H](CO)[C@@H](O)[C@H](O)[C@H]3OC(C)=O)[C@H](C)O2)[C@H](C)[C@@H](O[C@@H]2O[C@H](C)C[C@H](N(C)C)[C@H]2O)[C@](C)(OC)C[C@@H](C)C(=O)[C@H](C)[C@@H](O)[C@]1(C)O` . State its measured MIC.
16

====

Test system: Staphylococcus epidermidis
Assay: Antibacterial activity against methicillin-resistant Staphylococcus epidermidis MRSE-1 by the broth microdilution method
Assay type: functional
observable: MIC (µg/mL)
Please give a number only; it is taken to be in µg/mL.

GET MIC where system = Staphylococcus epidermidis and item = `CC[C@H]1OC(=O)[C@H](C)[C@@H](O[C@H]2C[C@@](C)(OC)[C@@H](O[C@H]3O[C@H](COC(C)=O)[C@@H](OC(=O)c4ccccc4)[C@H](OC(C)=O)[C@H]3OC(C)=O)[C@H](C)O2)[C@H](C)[C@@H](O[C@@H]2O[C@H](C)C[C@H](N(C)C)[C@H]2O)[C@](C)(OC)C[C@@H](C)C(=O)[C@H](C)[C@@H](O)[C@]1(C)O`
16

GET MIC where system = Staphylococcus epidermidis and item = CC[C@H]1OC(=O)[C@H](C)[C@@H](O[C@H]2C[C@@](C)(OC)[C@@H](O[C@@H]3O[C@@H]4COC(c5ccccc5)O[C@H]4[C@H](O)[C@H]3O)[C@H](C)O2)[C@H](C)[C@@H](O[C@@H]2O[C@H](C)C[C@H](N(C)C)[C@H]2O)[C@](C)(OC)C[C@@H](C)C(=O)[C@H](C)[C@H]2N(CCCCn3cnc4ncccc43)C(=O)O[C@]12C (stereo partly drawn)
4

====

Kindly state MIC for each of the entries shown.
Tested on: Staphylococcus epidermidis
Assay: Antibacterial activity against methicillin-resistant Staphylococcus epidermidis MRSE-1 by the broth microdilution method
Type: functional

GET MIC where system = Staphylococcus epidermidis and item = `CC[C@H]1OC(=O)[C@H](C)[C@@H](O[C@H]2C[C@@](C)(OC)[C@@H](O[C@@H]3O[C@H](COC(=O)c4ccccc4)[C@@H](OC(=O)c4ccccc4)[C@H](OC(C)=O)[C@H]3OC(C)=O)[C@H](C)O2)[C@H](C)[C@@H](O[C@@H]2O[C@H](C)C[C@H](N(C)C)[C@H]2O)[C@](C)(OC)C[C@@H](C)C(=O)[C@H](C)[C@@H](O)[C@]1(C)O`
16 µg/mL

GET MIC where system = Staphylococcus epidermidis and item = CC[C@H]1OC(=O)[C@H](C)[C@@H](O[C@H]2C[C@@](C)(OC)[C@@H](O[C@@H]3O[C@@H]4COC(c5ccccc5)O[C@H]4[C@H](O)[C@H]3O)[C@H](C)O2)[C@H](C)[C@@H](O[C@@H]2O[C@H](C)C[C@H](N(C)C)[C@H]2O)[C@](C)(OC)C[C@@H](C)C(=O)[C@H](C)[C@H]2N(CCCCn3cnc4cccnc43)C(=O)O[C@]12C (stereo not given in full)
4 µg/mL

GET MIC where system = Staphylococcus epidermidis and item = `CC[C@H]1OC(=O)[C@H](C)[C@@H](O[C@H]2C[C@@](C)(OC)[C@@H](O[C@@H]3O[C@H](CO)[C@@H](O)[C@H](O)[C@H]3OC(C)=O)[C@H](C)O2)[C@H](C)[C@@H](O[C@@H]2O[C@H](C)C[C@H](N(C)C)[C@H]2O)[C@](C)(OC)C[C@@H](C)C(=O)[C@H](C)[C@@H](O)[C@]1(C)O`
> 16 µg/mL

GET MIC where system = Staphylococcus epidermidis and item = `CC[C@H]1OC(=O)[C@H](C)[C@@H](O[C@H]2C[C@@](C)(OC)[C@@H](O[C@@H]3O[C@H](CO)[C@@H](O)[C@H](O)[C@H]3O)[C@H](C)O2)[C@H](C)[C@@H](O[C@@H]2O[C@H](C)C[C@H](N(C)C)[C@H]2O)[C@](C)(OC)C[C@@H](C)C(=O)[C@H](C)[C@@H](O)[C@]1(C)O`
16 µg/mL

GET MIC where system = Staphylococcus epidermidis and item = `CC[C@H]1OC(=O)[C@H](C)[C@@H](O[C@H]2C[C@@](C)(OC)[C@@H](O)[C@H](C)O2)[C@H](C)[C@@H](O[C@@H]2O[C@H](C)C[C@H](N(C)C)[C@H]2O)[C@](C)(OC)C[C@@H](C)C(=O)[C@H](C)[C@@H](O)[C@]1(C)O`
16 µg/mL
